system.name: (NPNA)3 (Plasmodium falciparum)
method.notes: BLI, target on sensor
pKd: −log10 of the molar value.
# key: entry, value: pKd
property.measured: pKd

[[record]]
binder = "AB-007066 (antibody, V domains shown) VH: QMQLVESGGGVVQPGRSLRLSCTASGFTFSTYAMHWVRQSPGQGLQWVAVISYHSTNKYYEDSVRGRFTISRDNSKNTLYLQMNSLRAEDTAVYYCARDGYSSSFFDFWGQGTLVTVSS VL: DIQMTQSPSTLSASVGDRVAITCRASQSISRWLAWYQQQPGKAPKLLMSQASVLESGVPSRFSGSGSGTEFTLTISSLQPDDFATYYCQHYNSYFVTFGQGTKVEIK"
property_measured = "pKd"
reported_value = 8.45

[[record]]
binder = "AB-007040 (antibody, V domains shown) VH: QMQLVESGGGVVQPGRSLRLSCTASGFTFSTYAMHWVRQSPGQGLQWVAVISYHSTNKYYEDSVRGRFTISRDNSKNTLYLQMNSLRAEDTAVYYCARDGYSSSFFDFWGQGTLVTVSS VL: DIQMTQSPSTLSASVGDRVAITCRASQSISRWLAWYQQQPGKAPKLLMSGASVLESGVPSRFSGSGSGTEFTLTISSLQPDDFATYYCQHYNSYYVTFGQGTKVEIK"
property_measured = "pKd"
reported_value = 9.47

